Assay: Cytotoxicity against human OVISE cells measured after 3 days
Format: functional, cell-based
Details: 72 h
reported.property: IC50 (µM)
Return type: number; implicit unit µM.

# lookup: IC50 of C/C=C/Cn1cc(-c2cc(OC)c(C(=O)N3CCOCC3)cc2OC)c2cc(C)[nH]c2c1=O
5

* * *

Assay: Cytotoxicity against mouse FOX-NY cells measured after 8 days
Type: functional, cell-based
Details: 192 h
Item-by-item account of IC50
Return type: number; implicit unit µM.

smiles.code	reported.property	units.text	reported
C/C=C/Cn1cc(-c2ccc(C(=O)N3CCOCC3)cc2)c2cc[nH]c2c1=O	IC50	µM	11.9

Field: next compound
# lookup: IC50 of C/C=C/Cn1cc(-c2ccc(C(C)(C)O)cc2OC)c2cc[nH]c2c1=O
20

* * *

Tested on: NOMO-1
Assay: Cytotoxicity against human NOMO-1 cells measured after 3 days
Assay type: functional, cell-based
Settings: NOMO-1, 72 h
reported.property: pIC50
Reminder that pIC50 means the negative base-10 logarithm of the concentration expressed in mol/L.

# lookup: pIC50 of C/C=C/Cn1cc(-c2cc(OC)c(C(=O)N3CCOCC3)cc2OC)c2cc(C)[nH]c2c1=O
5.30

* * *

Tested on: SNU-475
Assay: Cytotoxicity against human SNU-475 cells measured after 3 days
Assay type: functional, cell-based
Conditions: SNU-475, 72 h
reported.property: pIC50
Reminder that pIC50 means the negative base-10 logarithm of the concentration expressed in mol/L.

# lookup: pIC50 of C/C=C/Cn1cc(-c2cc(OC)c(C(=O)N3CCOCC3)cc2OC)c2cc(C)[nH]c2c1=O
5.30

* * *

Biological target: Bromodomain-containing protein 4 (Homo sapiens)
Test: Displacement of biotinylated small-molecule ligand from recombinant His-tagged BRD4 bromodomain 2 (unknown origin) measured after 10 mins by TR-FRET assay
Mark each entry T if its IC50 sits below 10 µM, and F for all others.

For orientation, consider the following solved cases.
smiles.code	qualitative.label
C/C=C/Cn1cc(-c2ccc(C(=O)N3CCOCC3)cc2)c2cc(C)[nH]c2c1=O	T
C/C=C/Cn1cc(-c2ccc(C(C)(C)O)cc2OC)c2cc[nH]c2c1=O	F
C/C=C/Cn1cc(-c2cc(OC)c(C(C)(C)O)cc2OC)c2cc(C)[nH]c2c1=O	F
C/C=C/Cn1cc(-c2ccc(C(=O)N3CCOCC3)c(Cl)c2)c2cc(C)[nH]c2c1=O	F

Now, please, on to the next compound.
Find out if reported IC50 for C/C=C/Cn1cc(-c2ccc(C(C)(C)O)cc2)c2cc[nH]c2c1=O is less than 10 µM
T

* * *

System: HEL
Experiment: Cytotoxicity against human HEL cells measured after 8 days
Assay type: functional, cell-based
Settings: 192 h
reported.property: IC50
Please provide the amount together with its unit, number first.

Please review the following examples before continuing.
smiles.code	IC50
C/C=C/Cn1cc(-c2cc(OC)c(C(=O)N3CCOCC3)cc2OC)c2cc(C)[nH]c2c1=O	2 µM
C/C=C/Cn1cc(-c2ccc(C(=O)N3CCOCC3)cc2)c2cc[nH]c2c1=O	18 µM

Field: next compound
# lookup: IC50 of C/C=C/Cn1cc(-c2ccc(C(C)(C)O)cc2OC)c2cc[nH]c2c1=O
14.8 µM

* * *

System: EKVX
Assay: Cytotoxicity against human EKVX cells after 8 days
Format: functional, cell-based
Conditions: 192 h
reported.property: pIC50
Reminder that pIC50 means the negative base-10 logarithm of the concentration expressed in mol/L.

# lookup: pIC50 of C/C=C/Cn1cc(-c2cc(OC)c(C(=O)N3CCOCC3)cc2OC)c2cc(C)[nH]c2c1=O
5.70
